Origin of measurements: patent US20160237059A1

molecular target: murine CCR2 (Mus musculus); construct: host or cells: U2OS β-arrestin cell line; assay: Functional β-arrestin recruiting test with human MCP-1 (B-2a); assay type: cell-based; settings: U2OS β-arrestin cell line transfected with murine CCR2; agonist human MCP-1 at EC50 (about 3 nM); in some cases means of several determinations
Parameter Measured: IC50 (nM)

(A) Nc1cnn(-c2nc(C(F)(F)F)c(Oc3ccc(Cl)c(C(F)(F)F)c3)c(=O)[nH]2)c1
(B) O=c1[nH]c(Cc2cccnc2)nc(C(F)(F)F)c1Cc1ccc(Cl)c(Cl)c1
(C) O=c1[nH]c(NC2CCOC2)nc(C(F)(F)F)c1Oc1ccc(Cl)c(Cl)c1 (stereo not shown)
// query Task field, ranking: reported IC50, descending order. Please list the labels in the order you were asked to rank them.
// result C, B, A

---

biological target: murine CCR2 (Mus musculus); construct: host or cells: U2OS β-arrestin cell line; assay: Functional β-arrestin recruiting test with murine MCP-1 (B-2b); type: cell-based; details: U2OS β-arrestin cell line transfected with murine CCR2; agonist murine MCP-1; in some cases means of several determinations
Parameter Measured: IC50 (nM)

Some compounds with known IC50 results, for comparison:
> print(dat)
                                    compound  value.units  recorded.measurement
 1  Nc1cccc(-c2nc(C(F)(F)F)c(Oc3ccc(Cl)c(C(F)(F)F)c3)c(=O)[nH]2)n1 [Example 44]           nM                   222
 2  Nc1ncc(-c2nc(C(F)(F)F)c(Oc3ccc(Cl)c(Cl)c3)c(=O)[nH]2)cn1 [Example 154]           nM                  1930
 3  O=c1[nH]c(-c2n[nH]cc2Cl)nc(C(F)(F)F)c1Cc1ccc(Cl)c(Cl)c1 [Example 75]           nM                   102
 4  COc1cn(C)nc1-c1nc(C(F)(F)F)c(Oc2ccc(Cl)c(C(F)(F)F)c2)c(=O)[nH]1 [Example 264]           nM                    53
 5  CCc1cc(-c2nc(C(F)(F)F)c(Oc3ccc(Cl)c(C(F)(F)F)c3)c(=O)[nH]2)no1 [Example 217]           nM                   874
 6  O=c1[nH]c(-c2cccnn2)nc(C(F)(F)F)c1Oc1ccc(Cl)c(Cl)c1 [Example 125]           nM                   475
 7  CNc1cccc(-c2nc(C(F)(F)F)c(Oc3ccc(Cl)c(C(F)(F)F)c3)c(=O)[nH]2)n1 [Example 167]           nM                   153
 8  COc1cccnc1-c1nc(C(F)(F)F)c(Oc2ccc(C)c(Cl)c2)c(=O)[nH]1 [Example 196]           nM                   585
 9  O=c1[nH]c(-c2ncccc2Cl)nc(C(F)(F)F)c1Cc1ccc(Cl)cc1 [Example 211]           nM                   299
10  CCc1cc(-c2nc(C(F)(F)F)c(Oc3ccc(Cl)c(Cl)c3)c(=O)[nH]2)no1 [Example 218]           nM                   584

(a) O=c1[nH]c(-n2cc(C(F)(F)F)cn2)nc(C(F)(F)F)c1Oc1ccc(Cl)c(Cl)c1 [Example 253]
(b) Nc1cnn(-c2nc(C(F)(F)F)c(Oc3ccc(Cl)c(C(F)(F)F)c3)c(=O)[nH]2)c1 [Example 108]
// query From the items above, decide which of a and b has the lower IC50 reading. Reply with the label of the item you choose.
// result b
(b: 27 nM, a: 4230 nM)

(a) CS(=O)(=O)c1cccnc1-c1nc(C(F)(F)F)c(Oc2ccc(Cl)c(Cl)c2)c(=O)[nH]1 [Example 268]
(b) CC(C)Oc1ccc(-c2nc(C(F)(F)F)c(Oc3ccc(Cl)c(Cl)c3)c(=O)[nH]2)cn1 [Example 163]
// query From the items above, decide which of a and b has the lower IC50 reading. Reply with the label of the item you choose.
// result a
(a: 484 nM, b: 7680 nM)

(A) Cc1cc(Oc2c(C(F)(F)F)nc(-c3ncccc3Cl)[nH]c2=O)ccc1Cl [Example 197]
(B) CC(C)(C)Oc1ccnc(-c2nc(C(F)(F)F)c(Oc3ccc(Cl)c(Cl)c3)c(=O)[nH]2)c1 [Example 159]
(C) CN(C)c1ccc(-c2nc(C(F)(F)F)c(Oc3ccc(Cl)c(Cl)c3)c(=O)[nH]2)nc1 [Example 133]
// query Arrange the 3 compounds from largest to smallest IC50. Please list the labels in the order you were asked to rank them.
// result C, B, A
(C: 21700 nM, B: 2470 nM, A: 83 nM)

(1) CC(C)(C)Oc1cccc(-c2nc(C(F)(F)F)c(Oc3ccc(Cl)c(C(F)(F)F)c3)c(=O)[nH]2)n1 [Example 151]
(2) COc1conc1-c1nc(C(F)(F)F)c(Oc2ccc(Cl)c(C(F)(F)F)c2)c(=O)[nH]1 [Example 180]
(3) O=c1[nH]c(-n2cccn2)nc(C(F)(F)F)c1Oc1ccc(Cl)c(C(F)(F)F)c1 [Example 73]
(4) COc1cccnc1-c1nc(C(F)(F)F)c(Oc2ccc(Cl)c(C)c2)c(=O)[nH]1 [Example 194]
(5) O=c1[nH]c(-c2cc(C3CC3)on2)nc(C(F)(F)F)c1Oc1ccc(Cl)c(C(F)(F)F)c1 [Example 220]
// query # ascending order, key=IC50 Please list the labels in the order you were asked to rank them.
// result 3, 4, 2, 5, 1
(3: 37 nM, 4: 59 nM, 2: 105 nM, 5: 775 nM, 1: 3680 nM)

---

molecular target: UniProt:P41597; assay: Functional Ca2+ release test (B-1); details: Chem-1 cell line transfected with human CCR2; 50% inhibition of the MCP-1 effect, MCP-1 at EC50 (about 5 nM); in some cases means of several determinations
Sequence (P41597 1-360 isoform P41597-2): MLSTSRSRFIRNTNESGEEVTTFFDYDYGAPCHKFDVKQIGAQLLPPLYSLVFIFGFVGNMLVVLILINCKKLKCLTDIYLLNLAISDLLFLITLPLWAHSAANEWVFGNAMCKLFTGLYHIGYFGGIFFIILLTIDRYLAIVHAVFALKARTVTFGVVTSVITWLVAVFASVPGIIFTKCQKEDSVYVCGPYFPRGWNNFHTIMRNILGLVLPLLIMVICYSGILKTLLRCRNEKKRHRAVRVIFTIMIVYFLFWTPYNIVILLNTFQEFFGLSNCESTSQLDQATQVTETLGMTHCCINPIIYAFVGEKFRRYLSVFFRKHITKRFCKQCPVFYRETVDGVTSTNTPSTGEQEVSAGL
Parameter Measured: IC50 (nM)

Some compounds with known IC50 results, for comparison:
> print(dat)
                                     smiles  parameter.measured  recorded.measurement
1  O=c1[nH]c(Cc2ccno2)nc(C(F)(F)F)c1Cc1ccc(Cl)c(Cl)c1                IC50                    30
2  O=c1[nH]c(-c2cccc(O)n2)nc(C(F)(F)F)c1Oc1ccc(Cl)c(Cl)c1                IC50                   150
3  O=c1[nH]c(-n2cc(C(F)(F)F)cn2)nc(C(F)(F)F)c1Oc1ccc(Cl)c(Cl)c1                IC50                   240
4  COc1cncnc1-c1nc(C(F)(F)F)c(Oc2ccc(Cl)c(Cl)c2)c(=O)[nH]1                IC50                   1.1
5  Cc1cc(C)n(-c2nc(C(F)(F)F)c(Cc3ccc(Cl)c(Cl)c3)c(=O)[nH]2)n1                IC50                    83

(a) Nc1oc(=O)sc1-c1nc(C(F)(F)F)c(Cc2ccc(Cl)c(Cl)c2)c(=O)[nH]1
(b) O=c1[nH]c(-c2cn[nH]c2)nc(C(F)(F)F)c1Oc1ccc(Cl)c(C(F)(F)F)c1
(c) Cn1cnc(-c2nc(C(F)(F)F)c(Cc3ccc(Cl)c(Cl)c3)c(=O)[nH]2)c1
// query # ascending order, key=IC50 Please list the labels in the order you were asked to rank them.
// result b, c, a
(b: 0.8 nM, c: 1.3 nM, a: 59 nM)

---

target: murine CCR2 (Mus musculus, UniProt P51683); construct: host or cells: U2OS β-arrestin cell line; experiment: Functional β-arrestin recruiting test with human MCP-1 (B-2a); format: cell-based; conditions: U2OS β-arrestin cell line transfected with murine CCR2; agonist human MCP-1 at EC50 (about 3 nM); in some cases means of several determinations
Sequence (P51683 whole entry): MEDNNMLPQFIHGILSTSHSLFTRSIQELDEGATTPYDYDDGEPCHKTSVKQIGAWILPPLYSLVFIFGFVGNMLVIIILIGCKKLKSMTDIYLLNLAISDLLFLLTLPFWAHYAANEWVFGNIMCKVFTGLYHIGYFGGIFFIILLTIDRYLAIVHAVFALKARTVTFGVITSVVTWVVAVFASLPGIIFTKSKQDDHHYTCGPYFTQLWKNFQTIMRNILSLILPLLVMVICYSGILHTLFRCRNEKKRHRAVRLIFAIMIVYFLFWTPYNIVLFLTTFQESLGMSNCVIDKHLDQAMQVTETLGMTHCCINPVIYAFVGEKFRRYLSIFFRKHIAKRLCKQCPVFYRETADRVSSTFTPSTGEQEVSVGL
Parameter Measured: IC50 (nM)

> print(dat)
                                     smiles  recorded.measurement
1  Cc1noc(Cc2nc(C(F)(F)F)c(Cc3ccc(Cl)c(Cl)c3)c(=O)[nH]2)n1                   270
2  Nc1ccnc(-c2nc(C(F)(F)F)c(Oc3ccc(Cl)c(C(F)(F)F)c3)c(=O)[nH]2)c1                    86

(A) Cc1cccc(-c2nc(C(F)(F)F)c(Cc3ccc(Cl)c(Cl)c3)c(=O)[nH]2)n1
(B) COc1ncccc1-c1nc(C(F)(F)F)c(Oc2ccc(Cl)c(C(F)(F)F)c2)c(=O)[nH]1
// query Which record would sort first by descending IC50, A or B ? Reply with the label of the item you choose.
// result A
